- measurementTarget: Caspase-1 (Homo sapiens);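 further: Caspase-1 enzyme inhibition assay with a peptide substrate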; further: in other assays of this panel Not Active means under 50% inhibition at 10 µM
- Sequence (P29466 120-297 limits assumed): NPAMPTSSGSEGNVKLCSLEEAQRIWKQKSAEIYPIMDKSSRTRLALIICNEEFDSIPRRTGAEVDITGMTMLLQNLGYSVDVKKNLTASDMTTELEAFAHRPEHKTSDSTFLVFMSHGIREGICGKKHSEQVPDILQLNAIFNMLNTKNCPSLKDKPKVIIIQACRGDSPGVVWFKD
- Sequence (P29466 317-404 limits assumed): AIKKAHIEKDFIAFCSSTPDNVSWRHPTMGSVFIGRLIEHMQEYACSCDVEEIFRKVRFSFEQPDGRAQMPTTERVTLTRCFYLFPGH
- Set-up: species or system Escherichia coli
measurementKind: IC50

INSERT INTO assay_data (compound, result) VALUES
  ('CCC1(c2ccccc2)C(=O)NC(=O)NC1=O [PHENOBARBITAL]', 'Not Active'),
  ('Cc1ccc(Cl)c(Nc2ccccc2C(=O)O)c1Cl [MECLOFENAMIC ACID]', 'Not Active'),
  ('OC[C@H]1OC2C3[C@@H](CO)OC(O[C@H]4[C@H](O)[C@@H](O)[C@@H](O[C@H]5[C@H](O)[C@@H](O)[C@@H](O[C@H]6[C@H](O)[C@@H](O)[C@@H](O[C@H]7[C@H](O)[C@@H](O)[C@@H](O[C@H]8[C@H](O)[C@@H](O)[C@@H](O[C@H]9[C@H](O)[C@@H](O)C(OC1[C@H](O)[C@H]2O)O[C@@H]9CO)O[C@@H]8CO)O[C@@H]7CO)O[C@@H]6CO)O[C@@H]5CO)O[C@@H]4CO)[C@H](O)[C@H]3O', 'Not Active'),
  ('c1ccc(Cn2ccnc2)cc1', 'Not Active'),
  ('C#C[C@]1(O)CC[C@H]2[C@@H]3[C@H](C)CC4=C(CCC(=O)C4)[C@H]3CC[C@@]21C [TIBOLONE]', 'Not Active'),
  ('COc1cc(NC(C)CCCN)c2ncccc2c1 (stereo unspecified) [PRIMAQUINE]', 'Not Active');
